Target: T1, recombinant canine β NGF (canine, UniProt Q29074 110-229 (pig entry))
T1 construct: also called canine NGF
T1 chain: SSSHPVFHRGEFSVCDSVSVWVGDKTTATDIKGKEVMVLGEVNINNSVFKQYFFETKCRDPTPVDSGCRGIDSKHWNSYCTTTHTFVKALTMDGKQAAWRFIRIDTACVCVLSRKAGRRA
Test: SPR (Biacore), mAb captured on goat anti-mouse IgG Fc, canine NGF injected; Expt 1
measure: kon

# binder, assayValue
data = [
    ("PR-1254973 (antibody, mouse IgG2b, V domains shown, also called 2B12; ML129-2B12.5G9) VH: QVQLQQPGAELVKPGASVKLSCKASGYTFTNYWMHWVKQRPGQGLEWIGRIDPYGGGTKHNEKFKRKATVTADKSSSTAYILLSSLTSEDSAVYYCTRSGYDYYFDVWGTGTTVTVSS VL: DIQMTQSPASLSASVGETVTVTCRASENIYSFLAWHQQKQGKSPQLLVYNANTLAEGVPSRFSGSGSGTQFSLKINSLQPEDFGSYYCQHHFGTPFTFGSGTKLEIKR", "> 1e+07 M⁻¹ s⁻¹"),
    ("PR-1254980 (antibody, mouse IgG1, V domains shown, also called 23F1; ML129-23F1.4G3) VH: EVQLQQSGAELVKPGASVKLSCTASGFNIKDTYIYWVKQRPEQGLEWIGRIDPANGNTIYASKFQGKATITADTSSNTAYMQLSSLTSGDTAVYYCAGYGYYAYWGQGTTLTVSS VL: DVVLTQTPLSLPVNIGDQASISCKSTKSLLNGDGFTYLDWYLQKPGQSPQLLIYLVSNRFSGVPDRFSGSGSGTDFTLKISRVEAEDLGVYYCFESNYLFTFGSGTKLEMKR", "> 1e+07 M⁻¹ s⁻¹"),
    ("PR-1254982 (antibody, mouse IgG1, V domains shown, also called 3F7; ML130-3F7.4A8) VH: QVQLKESGPGLVAPSQSLSITCTVSGFSLTGYNINWVRQPPGKGLEWLGMIWGYGDTDYNSALKSRLSISKDNSKSQVFLKMNSLQTDDTARYYCARDHYGGNDWYFDVWGTGTTVTVSS VL: DIQMTQTTSSLSASLGDRVTITCRASQDITNYLNWYQQKPDGTVKLLIYYTSRLHSGVPSRFSGSGSGTDYSLTISNLDQEDIATYFCQQGKTLPRTFGGGTKLEIKR", "> 1e+07 M⁻¹ s⁻¹"),
]
